Test system: P. falciparum asexual blood stage parasites (strains NF54, D6, K1, W2, 7G8, TM90C2A, V1/S)
EXPERIMENT_NOTES: [3H]-hypoxanthine incorporation growth inhibition assay, asexual blood stage
Type: cell-based, Plasmodium falciparum
CONDITION_SUMMARY: Plasmodium falciparum; asexual blood stage, both drug-resistant and -sensitive strains; read-out: IC50
Description: In vitro antimalarial activity was measured using the [^3H]-hypoxanthine incorporation assay with various strains of P. falciparum obtained from MR4. Results were expressed as the concentration resulting in 50% inhibition (IC50). The half-maximal inhibitory concentrations (IC50) were determined for each molecule (Table S2). Figure 2 The potencies of selected antimalarials against asexual blood stages. […]
pIC50: −log10 of the molar value.
Measured pIC50, listed per entry.

MOLECULE	ASSAYED_TARGET	pIC50
COc1cc(NC(C)CCCNC(C)=C2CCOC2=O)c2ncccc2c1 (stereo not drawn) [bulaquine]	P. falciparum asexual blood stage parasites (strains NF54, D6, K1, W2, 7G8, TM90C2A, V1/S)	5.60 to 6.30

Given the molecule CC[C@H]1OC(=O)[C@H](C)[C@@H](O[C@H]2C[C@@](C)(OC)[C@@H](O)[C@H](C)O2)[C@H](C)[C@@H](O[C@@H]2O[C@H](C)C[C@H](N(C)C)[C@H]2O)[C@](C)(O)C[C@@H](C)CN(C)[C@H](C)[C@@H](O)[C@]1(C)O [azithromycin] and test system P. falciparum asexual blood stage parasites (strains NF54, D6, K1, W2, 7G8, TM90C2A, V1/S), the measured pIC50 is 5.00 to 6.00

Given the molecule COc1cc(Cc2cnc(N)nc2N)cc(OC)c1OC [trimethoprim] and test system P. falciparum asexual blood stage parasites (strains NF54, D6, K1, W2, 7G8, TM90C2A, V1/S), the measured pIC50 is 5.00 to 6.00

Given the molecule CCN(CC)CCCC(C)Nc1cc(OC)cc2cccnc12 (stereo not drawn) [diethylprimaquine] and test system P. falciparum asexual blood stage parasites (strains NF54, D6, K1, W2, 7G8, TM90C2A, V1/S), the measured pIC50 is 5.60 to 6.30

Given the molecule Cc1cc2nc3c(=O)[nH]c(=O)nc-3n(C[C@H](O)[C@H](O)[C@H](O)CO)c2cc1C [riboflavin] and test system P. falciparum asexual blood stage parasites (strains NF54, D6, K1, W2, 7G8, TM90C2A, V1/S), the measured pIC50 is 5.00 to 6.00

Given the molecule [H]/N=C(\N/C(=N/[H])Nc1ccc(Cl)cc1)NC(C)C [proguanil] and test system P. falciparum asexual blood stage parasites (strains NF54, D6, K1, W2, 7G8, TM90C2A, V1/S), the measured pIC50 is 5.00 to 6.00

---

System: P. yoelii liver stage parasites (liver schizonts)
EXPERIMENT_NOTES: P. yoelii liver stage assay in HepG2 cells (EEF immunofluorescence)
Type: cell-based, Plasmodium yoelii
CONDITION_SUMMARY: dose response

COMPOUND_SMILES	potency range against liver stages
C=C(NC(=O)C(=C)NC(=O)c1csc(C2=N[C@@H]3c4csc(n4)[C@H]4NC(=O)c5csc(n5)[C@H]([C@](C)(O)[C@@H](C)O)NC(=O)[C@H]5CSC(=N5)/C(=C/C)NC(=O)[C@H]([C@@H](C)O)NC(=O)c5csc(n5)[C@]3(CC2)NC(=O)[C@H](C)NC(=O)C(=C)NC(=O)[C@H](C)NC(=O)[C@H]([C@@H](C)CC)N[C@@H]2C=Cc3c([C@H](C)O)cc(nc3[C@H]2O)C(=O)O[C@@H]4C)n1)C(N)=O	submicromolar potencies
CC(=O)N(O)CCCCCNC(=O)CCC(=O)N(O)CCCCCNC(=O)CCC(=O)N(O)CCCCCN	submicromolar potencies
C=C[C@H]1C[N@@]2CC[C@H]1C[C@@H]2[C@@H](O)c1ccnc2ccc(OC)cc12	submicromolar potencies
